target: human MDM4 protein (amino acids 2-185) (Homo sapiens, UniProt O15151); construct: human MDM4 protein (amino acids 2-185); made in house; assay: p53-MDM4 TR-FRET assay (p53-MDM4 Assay 1); assay type: binding; conditions: 2.5 nM MDM4-biotinylated, 10 nM Cy5-p53 peptide; read-out: IC50 (μM) of p53-Hdm4 inhibition (TR-FRET) Assay 1
Sequence (O15151 2-185): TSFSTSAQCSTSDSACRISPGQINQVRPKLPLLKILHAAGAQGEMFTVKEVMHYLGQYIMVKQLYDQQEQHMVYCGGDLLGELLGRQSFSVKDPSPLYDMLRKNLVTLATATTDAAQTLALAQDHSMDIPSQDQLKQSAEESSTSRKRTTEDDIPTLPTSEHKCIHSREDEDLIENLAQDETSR
value_kind: log10(IC50) (log10 of the value in µM)

{"columns": ["compound", "target_desc", "log10(IC50)"],
 "data": [
  ["COc1cc2c(cc1OC(C)C)[C@H](c1ccc(Cl)cc1)N(c1ccc([C@](C)(O)C3CC[S+]([O-])CC3)cc1)C(=O)C2 (stereo partly shown) [Example 170]", "human MDM4 protein (amino acids 2-185) (Homo sapiens, UniProt O15151)", 1.80],
  ["COc1cc2c(cc1OC(C)C)[C@H](c1ccc(Cl)cc1)N(c1ccc(C(C)(O)c3ccc(NC(C)=O)cc3)nc1)C(=O)C2 (stereo partly shown) [Example 24]", "human MDM4 protein (amino acids 2-185) (Homo sapiens, UniProt O15151)", 1.79],
  ["COc1cc2c(cc1OC(C)C)[C@H](c1ccc(Cl)cc1)N(c1ccc(C(C)(O)C3CCN(C(=O)F)CC3)cc1)C(=O)C2 (mixture of isomers) [Example 90]", "human MDM4 protein (amino acids 2-185) (Homo sapiens, UniProt O15151)", 0.36],
  ["COc1cc2c(cc1OC(C)C)[C@H](c1ccc(Cl)cc1)N(c1ccc(C(C)(O)C3CCN(C(=O)CO)CC3)cc1)C(=O)C2 (mixture of isomers) [Example 92]", "human MDM4 protein (amino acids 2-185) (Homo sapiens, UniProt O15151)", 0.43],
  ["COc1cc2c(cc1OC(C)C)[C@H](c1ccc(Cl)cc1)N(c1ccc([C@](C)(O)C3CCOCC3)cc1)C(=O)C2 (single isomer, unassigned) [Example 33]", "human MDM4 protein (amino acids 2-185) (Homo sapiens, UniProt O15151)", 1.83],
  ["COc1cc2c(cc1OC(C)C)[C@H](c1ccc(Cl)cc1)N(c1ccc(C(C)(O)C3CC4CCCC(C3)N4C=O)cc1)C(=O)C2 (stereo partly shown) [Example 117]", "human MDM4 protein (amino acids 2-185) (Homo sapiens, UniProt O15151)", 0.46],
  ["CNC(=O)N1C2CCC1CC(C(C)(O)c1ccc(N3C(=O)Cc4cc(OC)c(OC(C)C)cc4[C@@H]3c3ccc(Cl)cc3)cc1)C2 (stereo partly shown) [Example 109]", "human MDM4 protein (amino acids 2-185) (Homo sapiens, UniProt O15151)", 0.40],
  ["COc1cc2c(cc1OC(C)C)[C@H](c1ccc(Cl)cc1)N(c1ccc(C(C)(O)C3CCN(CC(F)(F)F)CC3)cc1)C(=O)C2 (stereo partly shown) [Example 77]", "human MDM4 protein (amino acids 2-185) (Homo sapiens, UniProt O15151)", 1.13],
  ["COc1ccc(C(O)(c2ccc(N3C(=O)Cc4cc(OC)c(OC(C)C)cc4[C@@H]3c3ccc(Cl)cc3)cc2)C(F)(F)F)cc1 (stereo partly shown) [Example 7]", "human MDM4 protein (amino acids 2-185) (Homo sapiens, UniProt O15151)", 1.69],
  ["CC(C)Oc1cc2c(cc1OCC(=O)N(C)C)CC(=O)N(c1ccc(C(C)(O)C3CCOCC3)cc1)[C@H]2c1ccc(Cl)cc1 (stereo partly shown) [Example 149]", "human MDM4 protein (amino acids 2-185) (Homo sapiens, UniProt O15151)", 0.74],
  ["COc1cc2c(cc1OC(C)C)[C@H](c1ccc(Cl)cc1)N(c1ccc([C@@](C)(O)C3CCC(F)(F)CC3)cc1)C(=O)C2 (single isomer, unassigned) [Example 47]", "human MDM4 protein (amino acids 2-185) (Homo sapiens, UniProt O15151)", 0.86],
  ["COc1cccc(C(C)(O)c2ccc(N3C(=O)Cc4cc(OC)c(OC(C)C)cc4[C@@H]3c3ccc(Cl)cc3)cc2)c1 (stereo partly shown) [Example 1]", "human MDM4 protein (amino acids 2-185) (Homo sapiens, UniProt O15151)", 1.85],
  ["COc1cc2c(cc1OC(C)C)[C@H](c1ccc(Cl)cc1)N(c1ccc(C(C)(O)C3CCOC3)cc1)C(=O)C2 (stereo partly shown) [Example 48]", "human MDM4 protein (amino acids 2-185) (Homo sapiens, UniProt O15151)", 1.65],
  ["COc1cc2c(cc1OC(C)C)[C@H](c1ccc(Cl)cc1)N(c1ccc([C@@](C)(O)C3CCN(C)CC3)cc1)C(=O)C2 (single isomer, unassigned) [Example 94]", "human MDM4 protein (amino acids 2-185) (Homo sapiens, UniProt O15151)", 0.24],
  ["COc1cc2c(cc1OC(C)C)[C@H](c1ccc(Cl)cc1)N(c1ccc(C(O)C3CCCCC3)cc1)C(=O)C2 (stereo partly shown) [Example 8]", "human MDM4 protein (amino acids 2-185) (Homo sapiens, UniProt O15151)", 1.79],
  ["COc1cc2c(cc1OC(C)C)[C@H](c1ccc(Cl)cc1)N(c1ccc(C(C)(O)C3CCNC(=O)C3)cc1)C(=O)C2 (stereo partly shown) [Example 49]", "human MDM4 protein (amino acids 2-185) (Homo sapiens, UniProt O15151)", 0.91],
  ["COc1cc2c(cc1OC(C)C)[C@H](c1ccc(Cl)cc1)N(c1ccc(C(C)(O)C3CN(CCC(F)(F)F)C3)cc1)C(=O)C2 (stereo partly shown) [Example 69]", "human MDM4 protein (amino acids 2-185) (Homo sapiens, UniProt O15151)", 1.61],
  ["CNC(=O)N1CC(C(C)(O)c2ccc(N3C(=O)Cc4cc(OC)c(OC(C)C)cc4[C@@H]3c3ccc(Cl)cc3)cc2)C1 (stereo partly shown) [Example 67]", "human MDM4 protein (amino acids 2-185) (Homo sapiens, UniProt O15151)", 1.22],
  ["COc1cc2c(cc1OC(C)C)[C@H](c1ccc(Cl)cc1)N(c1ccc(C(C)(O)C3CCN(CCC(F)(F)F)CC3)cc1)C(=O)C2 (stereo partly shown) [Example 86]", "human MDM4 protein (amino acids 2-185) (Homo sapiens, UniProt O15151)", 0.81],
  ["COc1cc2c(cc1OC(C)C)[C@H](c1ccc(Cl)cc1)N(c1ccc(C(C)(O)CNC(C)=O)cc1)C(=O)C2 (stereo partly shown) [Example 29]", "human MDM4 protein (amino acids 2-185) (Homo sapiens, UniProt O15151)", 1.60],
  ["COc1cc2c(cc1OC(C)C)[C@H](c1ccc(Cl)cc1)N(c1ccc(C(O)C3CCOCC3)cc1)C(=O)C2 (stereo partly shown) [Example 40]", "human MDM4 protein (amino acids 2-185) (Homo sapiens, UniProt O15151)", 1.50],
  ["COc1cc2c(cc1OC(C)C)[C@H](c1ccc(Cl)cc1)N(c1ccc(C3(O)CN(S(C)(=O)=O)C3)cc1)C(=O)C2 [Example 62]", "human MDM4 protein (amino acids 2-185) (Homo sapiens, UniProt O15151)", 1.89],
  ["COc1cc2c(cc1OC(C)C)[C@H](c1ccc(Cl)cc1)N(c1ccc(C(C)(O)C3CN(C(=O)CO)C3)cc1)C(=O)C2 (stereo partly shown) [Example 102]", "human MDM4 protein (amino acids 2-185) (Homo sapiens, UniProt O15151)", 0.87],
  ["COc1cc2c(cc1OC(C)C)[C@H](c1ccc(Cl)cc1)N(c1ccc(C(C)(O)c3cccnc3)cc1)C(=O)C2 (stereo partly shown) [Example 16]", "human MDM4 protein (amino acids 2-185) (Homo sapiens, UniProt O15151)", 0.93],
  ["COc1cc2c(cc1OC(C)C)[C@H](c1ccc(Cl)cc1)N(c1ccc(C(C)(O)C3CCS(=O)(=O)CC3)cc1)C(=O)C2 (stereo partly shown) [Example 166]", "human MDM4 protein (amino acids 2-185) (Homo sapiens, UniProt O15151)", 0.89]
]}

* * *

Target: human MDM2 protein (amino acids 2-188) (Homo sapiens)
Construct: human MDM2 protein (amino acids 2-188); made in house
Sequence (Q00987 2-188): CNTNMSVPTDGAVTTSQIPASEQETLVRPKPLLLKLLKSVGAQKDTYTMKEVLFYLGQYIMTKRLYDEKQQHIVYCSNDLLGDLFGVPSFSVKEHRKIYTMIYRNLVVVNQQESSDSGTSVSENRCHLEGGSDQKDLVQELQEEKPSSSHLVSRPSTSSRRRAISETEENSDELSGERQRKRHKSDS
Experiment: p53-MDM2 TR-FRET assay (p53-MDM2 Assay 1)
Type: binding
Conditions: 1.25 nM MDM2-biotinylated, 10 nM Cy5-p53 peptide; read-out: IC50 (μM) of p53-Hdm2 inhibition (TR-FRET) Assay 1
Experimental: Time Resolved Fluorescence Energy Transfer (TR-FRET) Assay The inhibition of p53-MDM2 and p53-MDM4 interactions is measured by time resolved fluorescence energy transfer (TR-FRET). Fluorescence energy transfer (or Foerster resonance energy transfer) describes an energy transfer between donor and acceptor fluorescent molecules. […]
Recorded IC50 for the following compounds
value_kind: IC50

{"columns": ["compound", "reported"],
 "data": [
  ["COc1cc2c(cc1OC(C)C)[C@H](c1ccc(Cl)cc1)N(c1ccc(C(C)(O)C3CN(C(C)=O)C3)cc1)C(=O)C2 (stereo partly shown) [Example 66]", "0.0146 µM"],
  ["COc1cc2c(cc1OC(C)C)[C@H](c1ccc(Cl)cc1)N(c1ccc(C(C)(O)C34CCC(CC3)O4)cc1)C(=O)C2 (mixture of isomers) [Example 135]", "0.00815 µM"],
  ["COc1cc2c(cc1OC(C)C)[C@H](c1ccc(Cl)cc1)N(c1ccc([C@@](C)(O)c3ccc(NC(C)=O)cc3)cc1)C(=O)C2 [Example 26]", "0.0043 µM"],
  ["CCC(C)(O)c1ccc(N2C(=O)Cc3cc(OC)c(OC(C)C)cc3[C@@H]2c2ccc(Cl)cc2)nc1 (stereo partly shown) [Example 10]", "0.247 µM"],
  ["COc1cc2c(cc1OC(C)C)[C@H](c1ccc(Cl)cc1)N(c1ccc([C@](C)(O)C3CCOCC3)cc1)C(=O)C2 (single isomer, unassigned) [Example 33]", "0.216 µM"],
  ["COc1cc2c(cc1OC(C)C)[C@H](c1ccc(Cl)cc1)N(c1ccc(C(C)(O)C3CCN(CCO)CC3)cc1)C(=O)C2 (stereo partly shown) [Example 93]", "0.0027 µM"],
  ["COc1cc2c(cc1OC(C)C)[C@H](c1ccc(Cl)cc1)N(c1ccc([C@](C)(O)C3CCS(=O)(=O)CC3)cc1)C(=O)C2 [Example 167]", "0.125 µM"],
  ["COC(=O)N1CC(O)(c2ccc(N3C(=O)Cc4cc(OC)c(OC(C)C)cc4[C@@H]3c3ccc(Cl)cc3)cc2)C1 [Example 58]", "0.205 µM"],
  ["COc1cc2c(cc1OC(C)C)[C@H](c1ccc(Cl)cc1)N(c1ccc(C(C)(O)CNC(C)=O)cc1)C(=O)C2 (stereo partly shown) [Example 29]", "0.143 µM"],
  ["COc1cc2c(cc1OC(C)C)[C@H](c1ccc(Cl)cc1)N(c1ccc([C@@](C)(O)C3CCN(C)CC3)cc1)C(=O)C2 (single isomer, unassigned) [Example 94]", "0.0016 µM"],
  ["COc1cc2c(cc1OC(C)C)[C@H](c1ccc(Cl)cc1)N(c1ccc(C(C)(O)C34CCC(CC3)C4)cc1)C(=O)C2 (stereo partly shown) [Example 138]", "0.0062 µM"],
  ["COc1cc2c(cc1OC(C)C)[C@H](c1ccc(Cl)cc1)N(c1ccc(C(C)(O)C3CC4CCC(C3)N4C(=O)CO)cc1)C(=O)C2 (stereo partly shown) [Example 114]", "0.0045 µM"],
  ["COc1cc2c(cc1OC(C)C)[C@H](c1ccc(Cl)cc1)N(c1ccc(C(C)(O)C3CC4CCC(C3)O4)cc1)C(=O)C2 (mixture of isomers) [Example 158]", "0.0028 µM"],
  ["COc1cc2c(cc1OC(C)C)[C@H](c1ccc(Cl)cc1)N(c1ccc(C(C)(O)C3CC4CCCC(C3)N4)cc1)C(=O)C2 (stereo partly shown) [Example 116]", "0.0036 µM"],
  ["COc1cc2c(cc1OC(C)C)[C@H](c1ccc(Cl)cc1)N(c1ccc(C(C)(O)C3CCOCC3)cc1OC)C(=O)C2 (stereo partly shown) [Example 36]", "0.0051 µM"],
  ["COc1cc2c(cc1OC(C)C)[C@H](c1ccc(Cl)cc1)N(c1ccc(C(C)(O)c3ccc(F)cc3)cc1)C(=O)C2 (stereo partly shown) [Example 6]", "0.0343 µM"],
  ["COc1cc2c(cc1OC(C)C)[C@H](c1ccc(Cl)cc1)N(c1ccc([C@](C)(O)C3CC[S+]([O-])CC3)cc1)C(=O)C2 (stereo partly shown) [Example 170]", "0.168 µM"],
  ["CC(C)Oc1cc2c(cc1OCC1COC1)CC(=O)N(c1ccc(C(C)(O)C3CCOCC3)cc1)[C@H]2c1ccc(Cl)cc1 (stereo partly shown) [Example 147]", "0.0086 µM"],
  ["COc1cc2c(cc1OC(C)C)[C@H](c1ccc(Cl)cc1)N(c1ccc(C(C)(O)C3CCS(=O)(=O)CC3)cc1)C(=O)C2 (stereo partly shown) [Example 166]", "0.00735 µM"],
  ["CNC(=O)COc1cc2c(cc1OC(C)C)[C@H](c1ccc(Cl)cc1)N(c1ccc(C(C)(O)C3CCOCC3)cc1)C(=O)C2 (stereo partly shown) [Example 148]", "0.0067 µM"],
  ["COc1cc2c(cc1OC(C)C)[C@H](c1ccc(Cl)cc1)N(c1ccc([C@](C)(O)c3ccc(NC(C)=O)cc3)cc1)C(=O)C2 [Example 27]", "0.0458 µM"],
  ["COc1cc2c(cc1OC(C)C)[C@H](c1ccc(Cl)cc1)N(c1ccc([C@](C)(O)C3CCN(C(C)=O)CC3)cc1)C(=O)C2 (single isomer, unassigned) [Example 54]", "0.105 µM"],
  ["COc1cc2c(cc1OC(C)C)[C@H](c1ccc(Cl)cc1)N(c1ccc(C3(O)CN(C(=O)C4CC4)C3)cc1)C(=O)C2 [Example 61]", "0.156 µM"],
  ["COc1cc2c(cc1OC(C)C)[C@H](c1ccc(Cl)cc1)N(c1ccc(C(C)(O)c3ccncc3)cc1)C(=O)C2 (stereo partly shown) [Example 17]", "0.0068 µM"],
  ["COc1cc2c(cc1OC(C)C)[C@H](c1ccc(Cl)cc1)N(c1ccc([C@](C)(O)C3CC4CCC(C3)S4(=O)=O)cc1)C(=O)C2 (stereo partly shown) [Example 173]", "0.0943 µM"]
]}
